Tested on: SN12C
Assay Procedure: NCI tumour cell line growth inhibition, 48 h
The source made the active and inactive calls. Rule as the data show it: active = GI50 up to about 1.1 µM and inactive = higher. Peptide text beside a SMILES is read from it. * marks the point of attachment. Boc = CC(C)(C)OC(=O)*
Quantity: GI50

Look at each compound and report its GI50.
1. CCN1CCC(O)(c2ccc(Cl)c(Cl)c2)C(C(=O)c2ccc(Cl)c(Cl)c2)C1 (centres undefined)
2. C=C(C)[C@@H]1CC[C@]2(C)CC[C@]3(C)[C@H](CC[C@@H]4[C@@]5(C)CC[C@H](O)C(C)(C)[C@@H]5CC[C@]43C)[C@@H]12
3. Cc1cccc2c1C(=O)[C@](C)([C@]1(C)Nc3cccc(C)c3C1=O)N2
4. COC(=O)C(Cl)=C1CC1
5. Cc1ccc(Nc2[nH]c(=O)[nH]c(=O)c2C)cc1Cl
6. COc1cc(/C=C2\C(=O)N(c3cccc(NC(C)=O)c3)C(c3ccccc3)S2(=O)=O)cc(OC)c1OC (centres undefined)
7. CC(NC(=O)OC(C)(C)C)C(=O)NC(Cc1ccccc1)C(=O)NCC(=O)O (stereo not drawn) (Boc-Ala-Phe-Gly-OH; configuration not given here)
8. COc1ccc2c(c1OC)C(Br)CCC(Br)(Br)C2=O (centres undefined)

17.8 µM (inactive)
36.5 µM (inactive)
29.6 µM (inactive)
41.8 µM (inactive)
> 100 µM (inactive)
67.5 µM (inactive)
> 100 µM (inactive)
4.83 µM (inactive)

// returns reported GI50 for input `CNC(SC)=C1C(=O)OC(C)(C)OC1=O` > 100 µM (inactive)
